tested on: Human immunodeficiency virus 1; test: Antiviral activity against HIV1 RF in CEM-SS cells by MTS cytoprotection assay; type: functional, organism-based; conditions: Human immunodeficiency virus 1, RF
Reported metric: EC50 (nM)
Please respond with the number in nM and leave the unit unwritten.

INSERT INTO measurements (structure_string, reported_metric, unit_abbrev, value_measured) VALUES
  ('COC(=O)CCC/C=C(/c1ccc(C#N)cc1)c1cc(C)c2oc(=O)n(C)c2c1', 'EC50', 'nM', 590),
  ('COC(=O)c1cc(/C(=C\CCN2CCOC2=O)c2cc(C)c3on(C)c(=O)c3c2)cc(C)c1OC', 'EC50', 'nM', 2700);

Proceeding to the next molecule to report its EC50.
Provide EC50, recorded with Human immunodeficiency virus 1, of COC(=O)CCC/C=C(/c1cccc(C#N)c1)c1cc(C)c2oc(=O)n(C)c2c1
1730
